- experimental target: chimeric DR-IE (human-mouse chimeric MHC class II molecule) (human; murine)
- experiment notes: cell-based or functional assay
quantity measured: IC50, IL-2 secretion of T-Hyb 1 cells stimulated by 0401-IE transgenic APC; IgG (nM)
Only the number, expressed in nM, is required.

Observe how each entry below is paired with its result.
Any idea what IC50, IL-2 secretion of T-Hyb 1 cells stimulated by 0401-IE transgenic APC; IgG was measured for MS-GPC-8-6-13 (IgG4 form) (antibody, V domains shown) VH: QVELKESGPALVKPTQTLTLTCTFSGFSLSTSGVGVGWIRQPPGKALEWLALIDWDDDKYYSTSLKTRLTISKDTSKNQVVLTMTNMDPVDTATYYCARSPRYRGAFDYWGQGTLVTVSS VL: DIVLTQPPSVSGAPGQRVTISCSGSESNIGANYVTWYQQLPGTAPKLLIYDNNQRPSGVPDRFSGSKSGTSASLAITGLQSEDEADYYCQSYDYDHYVFGGGTKLTVLG ?
0.42

One more binder: MS-GPC-8-27-41 (IgG4 form) (antibody, V domains shown) VH: QVELKESGPALVKPTQTLTLTCTFSGFSLSTSGVGVGWIRQPPGKALEWLALIDWDDDKYYSTSLKTRLTISKDTSKNQVVLTMTNMDPVDTATYYCARSPRYRGAFDYWGQGTLVTVSS VL: DIVLTQPPSVSGAPGQRVTISCSGSESNIGNNYVQWYQQLPGTAPKLLIYDNNQRPSGVPDRFSGSKSGTSASLAITGLQSEDEADYYCQSYDMNVHVFGGGTKLTVLG
0.28

As a next step, examine the binder that follows.
Consider the binder shown here: MS-GPC-8-6 (IgG form) (antibody, V domains shown) VH: QVELKESGPALVKPTQTLTLTCTFSGFSLSTSGVGVGWIRQPPGKALEWLALIDWDDDKYYSTSLKTRLTISKDTSKNQVVLTMTNMDPVDTATYYCARSPRYRGAFDYWGQGTLVTVSS VL: DIVLTQPPSVSGAPGQRVTISCSGSSSNIGSNYVSWYQQLPGTAPKLLIYDNNQRPSGVPDRFSGSKSGTSASLAITGLQSEDEADYYCQSYDYDHYVFGGGTKLTVLG What is its recorded IC50, IL-2 secretion of T-Hyb 1 cells stimulated by 0401-IE transgenic APC; IgG?
6.7
